tested_target: KIF5B-RET-BaF3 (Homo sapiens, UniProt P07949)
Construct: fused on or other part: P33176 (Kinesin-1 heavy chain)
Sequence (P07949 whole entry, change not shown, the tested form may be a part): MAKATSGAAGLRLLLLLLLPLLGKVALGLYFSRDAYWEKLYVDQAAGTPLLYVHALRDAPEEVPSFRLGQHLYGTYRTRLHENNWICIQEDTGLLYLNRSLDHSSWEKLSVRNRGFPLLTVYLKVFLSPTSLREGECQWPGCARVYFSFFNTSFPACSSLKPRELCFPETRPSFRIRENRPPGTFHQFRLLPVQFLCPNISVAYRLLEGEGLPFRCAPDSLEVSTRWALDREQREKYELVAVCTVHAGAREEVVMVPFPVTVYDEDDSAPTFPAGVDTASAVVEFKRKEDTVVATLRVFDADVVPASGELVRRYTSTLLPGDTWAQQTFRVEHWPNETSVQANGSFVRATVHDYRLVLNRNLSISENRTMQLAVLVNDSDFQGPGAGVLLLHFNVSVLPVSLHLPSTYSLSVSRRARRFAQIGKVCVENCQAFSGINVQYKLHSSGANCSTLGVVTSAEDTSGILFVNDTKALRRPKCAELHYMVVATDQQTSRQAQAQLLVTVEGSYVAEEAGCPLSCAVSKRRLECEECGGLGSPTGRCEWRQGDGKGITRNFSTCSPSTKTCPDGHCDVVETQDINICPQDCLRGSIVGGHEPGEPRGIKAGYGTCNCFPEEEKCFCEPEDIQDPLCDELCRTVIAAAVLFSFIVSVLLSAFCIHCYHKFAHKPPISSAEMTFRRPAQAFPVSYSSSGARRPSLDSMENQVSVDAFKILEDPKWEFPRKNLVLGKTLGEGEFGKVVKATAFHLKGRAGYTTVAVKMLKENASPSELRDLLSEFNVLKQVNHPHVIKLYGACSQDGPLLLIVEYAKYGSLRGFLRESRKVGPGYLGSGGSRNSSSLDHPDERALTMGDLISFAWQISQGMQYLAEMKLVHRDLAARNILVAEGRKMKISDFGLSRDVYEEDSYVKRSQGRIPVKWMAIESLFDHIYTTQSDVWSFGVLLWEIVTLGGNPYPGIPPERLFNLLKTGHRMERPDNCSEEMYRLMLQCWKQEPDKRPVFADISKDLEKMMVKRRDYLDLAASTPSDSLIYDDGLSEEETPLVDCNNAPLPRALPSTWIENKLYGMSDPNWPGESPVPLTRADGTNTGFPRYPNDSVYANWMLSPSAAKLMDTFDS
assay_summary: Growth inhibition of KIF5B-RET-BaF3 cells stably transfected with kinase (MTS)
Format: cell-based
condition_label: 48 h, read-out: KIF5B-RET (IC50/nM)
experimental_readout: GI50 (nM)
Write the value in nM as a bare number.

Examples with their reported GI50 follow.
* Cc1ccc(C(=O)Nc2ccc(CN3CCN(C)CC3)c(C(F)(F)F)c2)cc1Oc1nc(-c2ccccc2)nc2c1cnn2C | 97.7
* Cc1ccc(C(=O)Nc2ccc(CN3CCN(C)CC3)c(C(F)(F)F)c2)cc1Oc1nc(-c2ccoc2)nc2cc[nH]c12 | 1710
* CN1CCN(Cc2cc(NC(=O)c3cccc(Oc4nc(-c5ccncc5)nc5cc[nH]c45)c3)cc(C(F)(F)F)c2)CC1 | 672

# ---- query molecule ----
I am curious: what GI50 value has been reported for `Cc1ccc(Oc2nc(-c3ccncc3)nc3cc[nH]c23)cc1C(=O)Nc1cc(CN2CCN(C)CC2)cc(C(F)(F)F)c1` ?
535

###

Listing: log10(GI50) of selected molecules
tested_target: CCDC6-RET-BaF3 (Homo sapiens, UniProt P07949)
Construct: fused on or other part: Q16204 (Coiled-coil domain-containing protein 6)
Sequence (P07949 whole entry, change not shown, the tested form may be a part): as above
assay_summary: Growth inhibition of CCDC6-RET-BaF3 cells stably transfected with kinase (MTS)
Assay type: cell-based
condition_label: 48 h, read-out: CCDC6-RET (IC50/nM)
Scale: decimal log of GI50, GI50 in nM.

Examples with their reported log10(GI50) follow.
- CN1CCN(Cc2ccc(C(=O)Nc3cc(Oc4nc(-c5ccc(Cl)cc5)nc5cc[nH]c45)ccc3Cl)cc2C(F)(F)F)CC1: 3.16
- Cc1ccc(C(=O)Nc2ccc(CN3CCN(C)CC3)c(C(F)(F)F)c2)cc1Oc1nc(-c2cccc(O)c2)nc2c1cnn2C: 2.25

I am curious: what log10(GI50) value has been reported for `Cc1ccc(C(=O)Nc2ccc(CN3CCN(C)CC3)c(C(F)(F)F)c2)cc1Oc1nc(-c2ccncc2)nc2[nH]ncc12` ?
1.87

I am curious: what log10(GI50) value has been reported for `Cc1ccc(Oc2cc(-c3cccnc3)nc3sccc23)cc1NC(=O)c1ccc(CN2CCN(C)CC2)c(C(F)(F)F)c1` ?
2.91

I am curious: what log10(GI50) value has been reported for `CN1CCN(Cc2ccc(NC(=O)c3cc(Oc4nc(-c5ccccc5)nc5c4ncn5C)ccc3Cl)cc2C(F)(F)F)CC1` ?
3.14

I am curious: what log10(GI50) value has been reported for `CCC(=O)NCC1CCN(c2ccc(NC(=O)c3ccc(C)c(Oc4nc(-c5ccncc5)nc5c4cnn5C)c3)cc2C(F)(F)F)CC1` ?
2.98

I am curious: what log10(GI50) value has been reported for `Cc1ccc(C(=O)Nc2ccc(CN3CCN(C)CC3)c(C(F)(F)F)c2)cc1Oc1nc(N2CCOCC2)nc2ccn(C)c12` ?
3.47

I am curious: what log10(GI50) value has been reported for `Cc1ccc(C(=O)Nc2ccc(CN3CCN(C)CC3)c(C(F)(F)F)c2)cc1Oc1nc(-c2ccncc2)nc2c1cnn2C` ?
1.48

I am curious: what log10(GI50) value has been reported for `Cc1ccc(Oc2cc(-c3cccnc3)nc3sccc23)cc1C(=O)Nc1ccc(CN2CCN(C)CC2)c(C(F)(F)F)c1` ?
3.23

I am curious: what log10(GI50) value has been reported for `Cc1ccc(Oc2nc(-c3ccncc3)nc3cc[nH]c23)cc1C(=O)Nc1ccc(CN2CCN(C)CC2)c(C(F)(F)F)c1` ?
1.73

I am curious: what log10(GI50) value has been reported for `Cc1ccc(Oc2nc(-c3ccncc3)nc3[nH]cnc23)cc1C(=O)Nc1ccc(CN2CCN(C)CC2)c(C(F)(F)F)c1` ?
2.47

I am curious: what log10(GI50) value has been reported for `Cc1ccc(Oc2nc(-c3ccc(N)cc3)nc3c2ncn3C)cc1NC(=O)c1ccc(CN2CCN(C)CC2)c(C(F)(F)F)c1` ?
3.27

I am curious: what log10(GI50) value has been reported for `Cc1ccc(C(=O)Nc2cccc(C(F)(F)F)c2)cc1Oc1nc(-c2ccncc2)nc2nn(C)cc12` ?
3.46

I am curious: what log10(GI50) value has been reported for `Cc1ccc(-c2nc(Oc3ccc(Cl)c(NC(=O)c4ccc(CN5CCN(C)CC5)c(C(F)(F)F)c4)c3)c3c(ccn3C)n2)cc1` ?
3.32

I am curious: what log10(GI50) value has been reported for `CN1CCN(Cc2ccc(NC(=O)c3cccc(Oc4cc(-c5ccncc5)nc5c4ccn5C)c3)cc2C(F)(F)F)CC1` ?
2.53

I am curious: what log10(GI50) value has been reported for `Cc1ccc(Oc2nc(-c3ccoc3)nc3c2ncn3C)cc1C(=O)Nc1ccc(CN2CCN(C)CC2)c(C(F)(F)F)c1` ?
3.08

###

tested_target: CCDC6-RET-BaF3 (Homo sapiens, UniProt P07949)
Construct: fused on or other part: Q16204 (Coiled-coil domain-containing protein 6)
assay_summary: Growth inhibition of CCDC6-RET-BaF3 cells stably transfected with kinase (MTS)
Assay type: cell-based
condition_label: 48 h, read-out: CCDC6-RET (IC50/nM)
experimental_readout: GI50 (nM)
Write the value in nM as a bare number.

Examples with their reported GI50 follow.
* CN1CCN(Cc2ccc(NC(=O)c3cc(Oc4nc(-c5ccncc5)nc5ccn(C)c45)ccc3-c3ccncc3)cc2C(F)(F)F)CC1 | 431
* Cc1ccc(Oc2nc(-c3cccc(O)c3)nc3c2ncn3C)cc1C(=O)Nc1ccc(CN2CCN(C)CC2)c(C(F)(F)F)c1 | 1560
* Cc1ccc(Oc2nc(-c3ccsc3)nc3c2cnn3C)cc1NC(=O)c1ccc(CN2CCN(C)CC2)c(C(F)(F)F)c1 | 2070

I am curious: what GI50 value has been reported for `CN1CCN(Cc2ccc(C(=O)Nc3cc(Oc4nc(-c5cccnc5)nc5[nH]ncc45)ccc3Cl)cc2C(F)(F)F)CC1` ?
567

I am curious: what GI50 value has been reported for `Cc1ccc(C(=O)Nc2ccc(CN3CCN(C)CC3)c(C(F)(F)F)c2)cc1Oc1nc(-c2cccnc2)nc2c1ncn2C` ?
710

I am curious: what GI50 value has been reported for `CN1CCN(Cc2ccc(NC(=O)c3cccc(Oc4nc(-c5cccnc5)nc5c4ncn5C)c3)cc2C(F)(F)F)CC1` ?
3610

I am curious: what GI50 value has been reported for `Cc1ccc(Oc2cc(-c3cccnc3)nc3[nH]ccc23)cc1C(=O)Nc1ccc(CN2CCN(C)CC2)c(C(F)(F)F)c1` ?
2900

###

tested_target: CCDC6-RET-BaF3 (Homo sapiens, UniProt P07949)
Construct: fused on or other part: Q16204 (Coiled-coil domain-containing protein 6)
assay_summary: Growth inhibition of CCDC6-RET-BaF3 cells stably transfected with kinase (MTS)
Type: cell-based
condition_label: 48 h, read-out: CCDC6-RET (IC50/nM)
Listing: GI50 of selected molecules
Write the value in nM as a bare number.

Examples with their reported GI50 follow.
• CCC(=O)NCC1CCN(c2ccc(NC(=O)c3ccc(C)c(Oc4nc(-c5ccncc5)nc5[nH]ncc45)c3)cc2C(F)(F)F)CC1 = 900
• Cc1ccc(C(=O)Nc2ccc(CN3CCN(C)CC3)c(C(F)(F)F)c2)cc1Oc1nc(-c2ccsc2)nc2ccn(C)c12 = 2960

# ---- query molecule ----
I am curious: what GI50 value has been reported for `Cc1ccc(Oc2nc(-c3ccoc3)nc3c2ncn3C)cc1NC(=O)c1ccc(CN2CCN(C)CC2)c(C(F)(F)F)c1` ?
221

###

tested_target: CCDC6-RET-BaF3 (Homo sapiens)
Construct: fused on or other part: Q16204 (Coiled-coil domain-containing protein 6)
assay_summary: Growth inhibition of CCDC6-RET-BaF3 cells stably transfected with kinase (MTS)
Assay type: cell-based
condition_label: 48 h, read-out: CCDC6-RET (IC50/nM)
Listing: log10 GI50 of selected compounds
Scale: decimal log of GI50, GI50 in nM.

• Cc1ccc(C(=O)Nc2ccc(CN3CCN(C)CC3)c(C(F)(F)F)c2)cc1Oc1cc(-c2cccnc2)nc2[nH]ccc12 = 3.01
• Cc1ccc(Oc2ncnc3c2ncn3C)cc1C(=O)Nc1ccc(CN2CCN(C)CC2)c(C(F)(F)F)c1 = 3.48
• Cc1ccc(C(=O)Nc2ccc(CN3CCN(C)CC3)c(C(F)(F)F)c2)cc1Oc1nc(-c2ccc(O)cc2)nc2c1cnn2C = 2.22
• CN1CCN(Cc2ccc(C(=O)Nc3cc(Oc4nc(-c5ccncc5)nc5ccn(C)c45)ccc3Cl)cc2C(F)(F)F)CC1 = 1.05
• Cc1ccc(Oc2nc(-c3cccnc3)nc3[nH]ncc23)cc1NC(=O)c1ccc(CN2CCN(C)CC2)c(C(F)(F)F)c1 = 3.37
• Cc1ccc(C(=O)Nc2ccc(CN3CCN(C)CC3)c(C(F)(F)F)c2)cc1Oc1nc(Nc2cccnc2)nc2c1cnn2C = 1.50

I am curious: what log10 GI50 value has been reported for `Cc1ccc(C(=O)Nc2ccc(CN3CCN(C)CC3)c(C(F)(F)F)c2)cc1Oc1ncnc2c1cnn2C` ?
1.74

Hey, just so you know, these numbers are from patent US11319322B2.
